Reference source for all entries: ChEMBL document CHEMBL3865850

molecular target: Bifunctional dihydrofolate reductase-thymidylate synthase (Toxoplasma gondii, UniProt Q07422); experiment: Inhibition of Toxoplasma gondii TS-DHFR expressed in Escherichia coli BL21 preincubated for 15 mins followed by addition of DHF as substrate and NADPH measured after 60 mins by resazurin/diaphorase coupled assay
Sequence (Q07422 whole entry): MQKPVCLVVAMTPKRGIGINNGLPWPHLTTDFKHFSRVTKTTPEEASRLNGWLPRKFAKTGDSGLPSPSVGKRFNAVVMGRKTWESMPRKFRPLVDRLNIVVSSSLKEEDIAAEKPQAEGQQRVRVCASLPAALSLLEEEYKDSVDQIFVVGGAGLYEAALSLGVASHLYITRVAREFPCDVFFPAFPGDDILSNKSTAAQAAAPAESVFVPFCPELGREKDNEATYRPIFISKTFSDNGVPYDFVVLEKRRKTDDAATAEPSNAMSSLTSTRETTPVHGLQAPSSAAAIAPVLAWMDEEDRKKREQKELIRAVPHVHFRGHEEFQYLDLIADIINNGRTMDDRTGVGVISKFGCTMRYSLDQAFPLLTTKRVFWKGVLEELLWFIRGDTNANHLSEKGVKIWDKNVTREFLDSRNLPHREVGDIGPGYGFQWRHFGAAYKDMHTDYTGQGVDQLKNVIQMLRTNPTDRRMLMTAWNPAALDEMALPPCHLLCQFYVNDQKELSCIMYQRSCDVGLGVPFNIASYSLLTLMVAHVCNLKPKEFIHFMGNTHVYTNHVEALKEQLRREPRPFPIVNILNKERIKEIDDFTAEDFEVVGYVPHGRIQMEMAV
pIC50: −log10 of the molar value.
# pIC50 >= 6 gives class 1, anything below gives class 0

INSERT INTO measurements (molecule_smiles, label_value) VALUES
  ('Nc1ncc(Cn2cc(-c3ccc(F)c(F)c3)c3cnccc32)c(N)n1', 'class 0'),
  ('Nc1ncc(CN2CCN(c3cccc(C(F)(F)F)c3)CC2)c(N)n1', 'class 0'),
  ('Nc1ncc(CN2CCCN(C(=O)c3cccc(C(F)(F)F)c3)CC2)c(N)n1', 'class 0'),
  ('Cc1nc(N)nc(N)c1CN1CCN(c2cccc(-c3cccc(C#N)c3)c2)CC1', 'class 1'),
  ('Cc1nc(N)nc(N)c1CN1CCN(c2cc(Cl)ccc2-c2ccccn2)CC1', 'class 1'),
  ('Nc1nc2[nH]c(-c3cccc(Cl)c3)cc2c(=O)[nH]1', 'class 0'),
  ('Nc1ncc(N2CCN(c3ccc(Cl)c(Cl)c3)CC2)c(N)n1', 'class 1'),
  ('Cc1nc(N)nc(N)c1C(=O)N1CCN(c2cc(Cl)ccc2-c2ccccn2)CC1', 'class 0'),
  ('Cc1nc(N)nc(N)c1C(=O)N1CCN(c2cccc(-c3ccccc3)c2)CC1', 'class 0');
